assay target: Renin (Homo sapiens, UniProt P00797)
Sequence (P00797 whole entry): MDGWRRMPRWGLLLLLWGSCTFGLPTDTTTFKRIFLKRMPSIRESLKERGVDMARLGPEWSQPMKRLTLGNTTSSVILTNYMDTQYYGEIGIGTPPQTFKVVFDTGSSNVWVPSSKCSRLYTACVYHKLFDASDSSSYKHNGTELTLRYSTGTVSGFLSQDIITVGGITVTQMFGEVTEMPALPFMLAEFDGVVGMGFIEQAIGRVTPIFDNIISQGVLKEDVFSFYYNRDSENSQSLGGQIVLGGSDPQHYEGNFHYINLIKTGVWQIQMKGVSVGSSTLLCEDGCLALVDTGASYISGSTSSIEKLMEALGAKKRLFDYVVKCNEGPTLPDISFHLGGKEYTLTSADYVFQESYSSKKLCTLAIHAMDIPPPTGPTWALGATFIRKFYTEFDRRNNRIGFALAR
protocol summary: Inhibitory activity against purified human renal renin at pH 6.5
Type: functional
pIC50: −log10 of the molar value.
property measured: pIC50

CCN1C[C@@H]([C@H](O)[C@H](CC2CCCCC2)NC(=O)[C@H](Cc2cnc[nH]2)NC(=O)[C@@H](CC(=O)N2C[C@H](OCOC)[C@H](OCOC)C2)Cc2ccccc2)OC1=O 8.57
CCN1C[C@@H]([C@H](O)[C@H](CC2CCCCC2)NC(=O)[C@H](Cc2c[nH]cn2)NC(=O)[C@H](Cc2ccc(OC)cc2)NC(=O)N(C)CCOCOCCOC)OC1=O 8.77

[a] CCN1C[C@@H]([C@H](O)[C@H](CC2CCCCC2)NC(=O)[C@H](Cc2cnc[nH]2)NC(=O)[C@@H](CC(=O)N2CCOCC2)Cc2ccccc2)OC1=O
[b] CCN1C[C@@H]([C@H](O)[C@H](CC2CCCCC2)NC(=O)[C@H](Cc2c[nH]cn2)NC(=O)[C@H](Cc2ccc(OC)cc2)NC(=O)C(C)C)OC1=O
[c] CCN1C[C@@H]([C@H](O)[C@H](CC2CCCCC2)NC(=O)[C@H](Cc2cnc[nH]2)NC(=O)[C@@H](CC(=O)N(C)CCOCOC)Cc2ccccc2)OC1=O
[d] CCN1C[C@@H]([C@H](O)[C@H](CC2CCCCC2)NC(=O)[C@H](Cc2c[nH]cn2)NC(=O)[C@H](Cc2ccc(OC)cc2)NC(=O)N(C)CCOCOC)OC1=O
Order the entries by their reported pIC50, beginning at the minimum. Use the labels to give the ranking in the order requested. d, b, a, c
(d: 8.34, b: 8.77, a: 9.00, c: 9.31)

* * *

protocol summary: Log P value at the pH of 7.4
Format: physicochemical
test context: octanol/water, pH 7.4; read-out: LogD7.4
property measured: logD

CCN1C[C@@H]([C@H](O)[C@H](CC2CCCCC2)NC(=O)[C@H](Cc2cnc[nH]2)NC(=O)[C@@H](CC(=O)N2C[C@H](OCOCCOC)[C@H](OCOCCOC)C2)Cc2ccccc2)OC1=O 1.87
CCN1C[C@@H]([C@H](O)[C@H](CC2CCCCC2)NC(=O)[C@H](Cc2c[nH]cn2)NC(=O)[C@@H](CC(=O)N(C)CCOCOCCOC)Cc2ccccc2)OC1=O 2.21
CCN1C[C@@H]([C@H](O)[C@H](CC2CCCCC2)NC(=O)[C@H](Cc2cnc[nH]2)NC(=O)[C@H](Cc2ccc(OC)cc2)NC(=O)N2CCOCC2)OC1=O 2.11
CCN1C[C@@H]([C@H](O)[C@H](CC2CCCCC2)NC(=O)[C@H](Cc2cnc[nH]2)NC(=O)[C@@H](CC(=O)N2CCOCC2)Cc2ccccc2)OC1=O 2.2
CCN1C[C@@H]([C@H](O)[C@H](CC2CCCCC2)NC(=O)[C@H](Cc2c[nH]cn2)NC(=O)[C@H](Cc2ccc(OC)cc2)NC(=O)N(C)CCOCOCCOC)OC1=O 2.03
CCN1C[C@@H]([C@H](O)[C@H](CC2CCCCC2)NC(=O)[C@H](Cc2cnc[nH]2)NC(=O)[C@@H](CC(=O)N(C)CCO)Cc2ccccc2)OC1=O 1.94
